- measured_on: NAD-dependent protein deacetylase sirtuin-1 (Homo sapiens)
- protocol_description: Inhibition of human recombinant SIRT1 assessed as deacetylation of N-acetyl lysine residue in p53 (317 to 320) at 10 uM after 30 mins by luciferase-mediated luminescence assay relative to control
Active and inactive are the calls of the source. The calls are words filed in the database; no cut-off is given here.
measurement_name: inhibition

# example entries with known answers
CCCCCCCCn1c2c(c3cc(-c4ccnc(F)c4)ccc31)CN(C(N)=O)CC2 : inactive
CCCCCCCCn1c2c(c3cc(-c4cccc(C)c4)ccc31)CN(C(C)C)CC2 : 2.4%
CCCCCCCCn1c2c(c3cc(-c4cnc(N)nc4)ccc31)CN(C(=O)OCC)CC2 : inactive
CCCCCCCCn1c2c(c3cc(F)ccc31)CN(Cc1ccc(O)cc1)CC2 : inactive
CC(C)=CCn1c2c(c3cc(-c4cccc(C)c4)ccc31)CN(Cc1ccc(O)cc1)CC2 : inactive
CCCCCCCCn1c2c(c3cc(-c4cccc(C)c4)ccc31)CNCC2 : 5.1%

Task: Recorded inhibition for `CCCCCCCCn1c2c(c3cc(-c4cnc(N)nc4)ccc31)CN(C)CC2` with NAD-dependent protein deacetylase sirtuin-1 (Homo sapiens), please?
Output: inactive

Task: Also `CCCCCCCCn1c2c(c3cc(-c4cccc(C)c4)ccc31)CN(Cc1ccccc1)CC2` , if possible.
Output: < 5%
